assay: Cytotoxicity against HEK293T cells assessed as inhibition in cell growth; assay type: toxicity, cell-based, HEK-293T; conditions: human
Definition: the class of an entry is the range in lower band = under 0.06 nM, central band = from 0.06 nM up to 0.3 nM, upper band = 0.3 nM and over that contains its IC50.

// known answers, use as guide
compound	cat
CO[C@@H]1C[C@@]2(CO2)[C@H](OC(C)=O)[C@@H](/C=C/C(C)=C/C[C@@H]2O[C@H](C)[C@H](NC(=O)/C=C\[C@H](C)OC(C)=O)C[C@@H]2C)O1	lower band
CC(=O)O[C@@H](C)/C=C\C(=O)N[C@@H]1C[C@H](C)[C@H](C/C=C(C)/C=C/[C@H]2O[C@H](CC(=O)O)C[C@@](O)(CCl)[C@@H]2O)O[C@@H]1C [THAILANSTATIN B]	upper band
CC(/C=C/[C@H]1O[C@H](C)C[C@@]2(CO2)[C@@H]1O)=C\C[C@@H]1O[C@H](C)[C@H](NC(=O)/C=C\[C@H](C)OC(=O)N2CCCCC2)C[C@@H]1C	central band
CC(=O)O[C@H]1C(=O)[C@@]2(C)[C@H]([C@H](OC(=O)c3ccccc3)[C@]3(O)C[C@H](OC(=O)[C@H](O)[C@@H](NC(=O)c4ccccc4)c4ccccc4)C(C)=C1C3(C)C)[C@]1(OC(C)=O)CO[C@@H]1C[C@@H]2O [PACLITAXEL]	upper band
CC(/C=C/[C@H]1O[C@H](C)C[C@@]2(CO2)[C@@H]1O)=C\C[C@@H]1O[C@H](C)[C@H](NC(=O)/C=C\[C@H](C)NC(=O)N(C)C)C[C@@H]1C	central band
C=C1C[C@@H](CC(=O)O)O[C@H](/C=C/C(C)=C/C[C@@H]2O[C@H](C)[C@H](NC(=O)/C=C\[C@H](C)OC(C)=O)C[C@@H]2C)[C@H]1O	upper band
CO[C@@H]1C[C@@]2(CN2)[C@H](O)[C@@H](/C=C/C(C)=C/C[C@@H]2O[C@H](C)[C@H](NC(=O)/C=C\[C@H](C)OC(C)=O)C[C@@H]2C)O1	central band
CC(=O)O[C@@H](C)/C=C\C(=O)N[C@@H]1C[C@H](C)[C@H](C/C=C(C)/C=C/[C@H]2O[C@H](C)C[C@@]3(CO3)[C@@H]2O)O[C@@H]1C	central band
CO[C@@H]1C[C@@]2(CO2)[C@H](O)[C@@H](/C=C/C(C)=C/C[C@@H]2O[C@H](C)[C@H](NC(=O)/C=C\[C@H](C)NC(=O)C(C)C)C[C@@H]2C)O1	lower band
CC(=O)O[C@@H](C)/C=C\C(=O)N[C@@H]1C[C@H](C)[C@H](C/C=C(C)/C=C/[C@H]2O[C@H](CC(=O)O)C[C@@]3(CO3)[C@@H]2O)O[C@@H]1C [THAILANSTATIN A]	upper band

Given CC(=O)O[C@@H](C)/C=C\C(=O)N[C@@H]1C[C@H](C)[C@H](C/C=C(C)/C=C/[C@H]2O[C@H](CCNC(=O)OC(C)(C)C)C[C@@]3(CO3)[C@@H]2O)O[C@@H]1C , name the class its IC50 places it in. lower band

Given CC(/C=C/[C@H]1O[C@H](C)C[C@@]2(CO2)[C@@H]1O)=C\C[C@@H]1O[C@H](C)[C@H](NC(=O)/C=C\[C@H](C)NC(=O)N2CCCCC2)C[C@@H]1C , name the class its IC50 places it in. lower band

====

assay: Cytotoxicity against HEK293T cells assessed as inhibition in cell growth; type: toxicity, cell-based, HEK-293T; settings: human
pIC50: −log10 of the molar value.
Short version: pIC50 at least 10 is Condition met, less is Condition not met.

structure_notation	cat
CC(=O)O[C@@H](C)/C=C\C(=O)N[C@@H]1C[C@H](C)[C@H](C/C=C(C)/C=C/[C@H]2O[C@H](CC(=O)OC(C)(C)C)C[C@@](O)(CCl)[C@@H]2O)O[C@@H]1C	Condition met

State whether the measured pIC50 reaches 10, counting equality as reaching it, for CC(=O)O[C@@H](C)/C=C\C(=O)N[C@@H]1C[C@H](C)[C@H](C/C=C(C)/C=C/[C@H]2O[C@H](CC(=O)OC(C)(C)C)C[C@@]3(CO3)[C@@H]2O)O[C@@H]1C Condition met

State whether the measured pIC50 reaches 10, counting equality as reaching it, for COC(=O)C[C@@H]1C[C@@]2(CO2)[C@H](O)[C@@H](/C=C/C(C)=C/C[C@@H]2O[C@H](C)[C@H](NC(=O)/C=C\[C@H](C)OC(C)=O)C[C@@H]2C)O1 Condition not met

State whether the measured pIC50 reaches 10, counting equality as reaching it, for CC(/C=C/[C@H]1O[C@H](C)C[C@@]2(CO2)[C@@H]1O)=C\C[C@@H]1O[C@H](C)[C@H](NC(=O)/C=C\[C@H](C)NC(=O)C(C)C)C[C@@H]1C Condition met

State whether the measured pIC50 reaches 10, counting equality as reaching it, for CO[C@@H]1C[C@@]2(CO2)[C@H](O)[C@@H](/C=C/C(C)=C/C[C@@H]2O[C@H](C)[C@H](NC(=O)/C=C\[C@H](C)OC(=O)N3CCOCC3)C[C@@H]2C)O1 Condition met

====

assay: Cytotoxicity against HEK293T cells assessed as inhibition in cell growth; assay type: toxicity, cell-based, HEK-293T; conditions: human
readout_kind: pIC50
# pIC50 is unitless: minus log10 of the molar concentration; print number only

Form: compound = CC(/C=C/[C@H]1O[C@H](C)C[C@@]2(CO2)[C@@H]1O)=C\C[C@@H]1O[C@H](C)[C@H](NC(=O)/C=C\[C@H](C)OC(=O)N2CCN(C(=O)OC(C)(C)C)CC2)C[C@@H]1C ; pIC50 = 10.74

Form: compound = CC(/C=C/[C@H]1O[C@H](C)C[C@@]2(CO2)[C@@H]1O)=C\C[C@@H]1O[C@H](C)[C@H](NC(=O)/C=C\[C@H](C)OC(=O)N2CCOCC2)C[C@@H]1C ; pIC50 = 10.10

Form: compound = CC(/C=C/[C@H]1O[C@H](C)C[C@@]2(CO2)[C@@H]1O)=C\C[C@@H]1O[C@H](C)[C@H](NC(=O)/C=C\[C@H](C)OC(=O)N(C)C)C[C@@H]1C ; pIC50 = 11.52

Form: compound = CC(/C=C/[C@H]1O[C@H](C)C[C@@]2(CO2)[C@@H]1O)=C\C[C@@H]1O[C@H](C)[C@H](NC(=O)/C=C\[C@H](C)NC(=O)N2CCOCC2)C[C@@H]1C ; pIC50 = 9.52

Form: compound = CC(/C=C/[C@H]1O[C@H](CC(=O)OC(C)(C)C)C[C@@]2(CO2)[C@@H]1O)=C\C[C@@H]1O[C@H](C)[C@H](NC(=O)/C=C\[C@H](C)OC(=O)C(C)C)C[C@@H]1C ; pIC50 = 10.00

====

experiment: Cytotoxicity against HEK293T cells assessed as inhibition in cell growth; format: toxicity, cell-based, HEK-293T; details: human
log10 of IC50 for assorted compounds
Base-10 log of IC50, unit nM.

In the examples that follow, each entry is paired with its recorded log10 of IC50.
compound	log10 of IC50
CC(=O)O[C@@H](C)/C=C\C(=O)N[C@@H]1C[C@H](C)[C@H](C/C=C(C)/C=C/[C@H]2O[C@H](CC(C)(C)O)C[C@@]3(CO3)[C@@H]2O)O[C@@H]1C	-1.10
COC(=O)C[C@@H]1C[C@@]2(CO2)[C@H](O)[C@@H](/C=C/C(C)=C/C[C@@H]2O[C@H](C)[C@H](NC(=O)/C=C\[C@H](C)NC(=O)C(C)C)C[C@@H]2C)O1	-1.24
CC(/C=C/[C@H]1O[C@H](CC(=O)O)C[C@@](O)(CCl)[C@@H]1O)=C\C[C@@H]1O[C@H](C)[C@H](NC(=O)/C=C\[C@H](C)OC(=O)C(C)C)C[C@@H]1C [THAILANSTATIN C]	1.81
CNC(=O)O[C@@H]1[C@@H](/C=C/C(C)=C/C[C@@H]2O[C@H](C)[C@H](NC(=O)/C=C\[C@H](C)OC(C)=O)C[C@@H]2C)O[C@H](OC)C[C@@]12CO2	1.00

Form: compound = CO[C@@H]1C[C@@]2(CO2)[C@H](O)[C@@H](/C=C/C(C)=C/C[C@@H]2O[C@H](C)[C@H](NC(=O)/C=C\[C@H](C)OC(=O)N(C)CCO)C[C@@H]2C)O1 ; log10 of IC50 = -2.05

====

assay: Inhibition of pre-mRNA splicing in human HeLa nuclear extract in presence of ATP; format: cell-free
Decision: IC50 beneath 400 nM gives 1; IC50 meeting or exceeding 400 nM gives -1.

// known answers, use as guide
structure_notation	cat
CC(=O)O[C@@H](C)/C=C\C(=O)N[C@@H]1C[C@H](C)[C@H](C/C=C(C)/C=C/[C@H]2O[C@](C)(O)C[C@]3(CO3)[C@H]2O)O[C@@H]1C	-1
CC(=O)O[C@@H](C)/C=C\C(=O)N[C@@H]1C[C@H](C)[C@H](C/C=C(C)/C=C/[C@H]2O[C@](C)(O)C[C@@]3(CO3)[C@@H]2O)O[C@@H]1C	1
CC(=O)O[C@@H](C)/C=C\C(=O)N[C@H]1C[C@H](C)[C@H](C/C=C(C)/C=C/[C@H]2O[C@](C)(O)C[C@@]3(CO3)[C@@H]2O)O[C@@H]1C	-1
CO[C@]1(C)C[C@]2(CO2)[C@@H](O)[C@@H](/C=C/C(C)=C/C[C@@H]2O[C@H](C)[C@H](NC(=O)/C=C\[C@H](C)OC(C)=O)C[C@@H]2C)O1	-1
CO[C@]1(C)C[C@@]2(CO2)[C@H](O)[C@@H](/C=C/C(C)=C/C[C@@H]2O[C@H](C)[C@@H](NC(=O)/C=C\[C@H](C)OC(C)=O)C[C@@H]2C)O1	-1
CC(=O)O[C@@H](C)/C=C\C(=O)N[C@H]1C[C@H](C)[C@H](C/C=C(C)/C=C/[C@H]2O[C@](C)(O)C[C@]3(CO3)[C@H]2O)O[C@@H]1C	-1
CC(=O)O[C@@H](C)/C=C\C(=O)N[C@@H]1C[C@H](C)[C@H](C/C=C(C)/C=C/[C@H]2OC3(CC3)C[C@@]3(CO3)[C@@H]2O)O[C@@H]1C	1

Now examine the next entry.
In the record for CO[C@]1(C)C[C@@]2(CO2)[C@H](O)[C@@H](/C=C/C(C)=C/C[C@@H]2O[C@H](C)[C@H](NC(=O)/C=C\[C@H](C)OC(C)=O)C[C@@H]2C)O1 , is IC50 less than 400 nM? 1
